B1: CPEB3 Ribozyme (parent)
chain: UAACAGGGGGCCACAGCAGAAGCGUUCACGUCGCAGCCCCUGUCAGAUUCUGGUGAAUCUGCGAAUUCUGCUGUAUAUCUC

variants of: B1; test: self-cleavage, relative activity (ratio to wild type); higher = more cleavage; in vitro, sequencing
Measured quantity: self-cleavage

[[record]]
record_sequence = "UAACAGGGGGCCACAGCAGAAGCGUUCACGUCGCAGCCCCUGUCAGAUUCUGGUGAAAAUGCGAAUUCUGCUGUAUAUCUC"
recorded_value = 0.25

[[record]]
record_sequence = "UUACAGGGGGCCACAGCAGAAGCGUUCACGUCGCAGCCCCUGUCAGAUUCUGGUGAACCUGCGAAUUCUGCUGUAUAUCUC"
recorded_value = 0.42

[[record]]
record_sequence = "UAACAGGGGGCCACAGAAGAAGCGUUCACGUCGCAGCCCCAGUCAGAUUCUGGUGAAUCUGCGAAUUCUGCUGUAUAUCUC"
recorded_value = 0.1

[[record]]
record_sequence = "UAACAGGGGGCCACAGCAGAAGCGUUCACGUCGCAGCCCCUGCCAGAUUCUGGUGAAUCCGCGAAUUCUGCUGUAUAUCUC"
recorded_value = 0.26

[[record]]
record_sequence = "UUACAGGGGGCCACAGCAGAAGCGUUCACGUCGCAGCCCCUGUCAGAUUCUGGUGAAUCUGCGAAUUCUGCUGUUUAUCUC"
recorded_value = 1.09

[[record]]
record_sequence = "UAACAGGGGGCCACAGUAGAAGCGUUCACGUCGCAGCCCCUGUCAGAUUCUGGUGAAUCUGCGAAUUCUGCUGUAUAUCCC"
recorded_value = 0.85

[[record]]
record_sequence = "UAACAAGGGGCCACAGCAGAAGCGUUCACGUCGUAGCCCCUGUCAGAUUCUGGUGAAUCUGCGAAUUCUGCUGUAUAUCUC"
recorded_value = 0.15

[[record]]
record_sequence = "AAACAGGGGGCCACAGCAGAAGCGUUCACGUCGCAGCCCCUGUCAGAUUAUGGUGAAUCUGCGAAUUCUGCUGUAUAUCUC"
recorded_value = 0.47

[[record]]
record_sequence = "UAACAGGGGGCCUCAGCAGAAGCGUUCACGUCGCAGCCCCUGUCAGAUUCUGGUGAAUCUGCGAAUUCUCCUGUAUAUCUC"
recorded_value = 0.21

[[record]]
record_sequence = "UAACAGGGGGACACAGCAGAAGCGUUCACGUCGCAGCCCCUGUCAGAUUCUGGUGAAUCCGCGAAUUCUGCUGUAUAUCUC"
recorded_value = 0.2

[[record]]
record_sequence = "UGACAGGGGGCCACAGCAGAAGCGUUUACGUCGCAGCCCCUGUCAGAUUCUGGUGAAUCUGCGAAUUCUGCUGUAUAUCUC"
recorded_value = 0.4

[[record]]
record_sequence = "UAACAGGGGGCCACAGCAGAAGCGUACACGUCGCAGCCCCUGUCAGAUUCAGGUGAAUCUGCGAAUUCUGCUGUAUAUCUC"
recorded_value = 0.81

[[record]]
record_sequence = "UAACAGGGGGCCACUGCAGAAGCGUUCACGUCGCAGCCCCUGUCUGAUUCUGGUGAAUCUGCGAAUUCUGCUGUAUAUCUC"
recorded_value = 0.33

[[record]]
record_sequence = "UAACAGGGGGCCACAGCCGAAGCGUUCACGUCGCGGCCCCUGUCAGAUUCUGGUGAAUCUGCGAAUUCUGCUGUAUAUCUC"
recorded_value = 1.03

[[record]]
record_sequence = "UAACAAGGGGCCACAGCAGAAGCGUUCACGUCGCAGCCCCUGUCAGAUUCUGCUGAAUCUGCGAAUUCUGCUGUAUAUCUC"
recorded_value = 0.43

[[record]]
record_sequence = "UAACAGGGGGCCACAGCCGAAGCGUUCACGUCGCAGCCCCUGUCCGAUUCUGGUGAAUCUGCGAAUUCUGCUGUAUAUCUC"
recorded_value = 0.21

[[record]]
record_sequence = "UAACAGGGGACCGCAGCAGAAGCGUUCACGUCGCAGCCCCUGUCAGAUUCUGGUGAAUCUGCGAAUUCUGCUGUAUAUCUC"
recorded_value = 0.26

[[record]]
record_sequence = "UAACAGGGGGCCACAGCAGAAGCGUUCACGCCGCAGCCCCUGUCAGAUUCUGGUGUAUCUGCGAAUUCUGCUGUAUAUCUC"
recorded_value = 0.47

[[record]]
record_sequence = "UAACAGGGUGCCACCGCAGAAGCGUUCACGUCGCAGCCCCUGUCAGAUUCUGGUGAAUCUGCGAAUUCUGCUGUAUAUCUC"
recorded_value = 0.36

[[record]]
record_sequence = "UAACAGGGGGCCACAGCAAAAGCGUUCACGUCGCAGCCCCUGUCAGAUUCUGGUGAAUCUGCGAAUUCAGCUGUAUAUCUC"
recorded_value = 0.14

[[record]]
record_sequence = "UUACAGGGGGCUACAGCAGAAGCGUUCACGUCGCAGCCCCUGUCAGAUUCUGGUGAAUCUGCGAAUUCUGCUGUAUAUCUC"
recorded_value = 1.18

[[record]]
record_sequence = "UAACAGGGGGCCACAGCAGAAGCGUUCACGUGGCAGCCCCUGUCAGAUUCUGGUGAAUCUGCAAAUUCUGCUGUAUAUCUC"
recorded_value = 0.14

[[record]]
record_sequence = "UAACAGGGGGCCACAGCGGAAGCGUUCACGUCGCAGCCCCUGUCAGAUUCUGGUGAAUCUGCGAAAUCUGCUGUAUAUCUC"
recorded_value = 0.31

[[record]]
record_sequence = "UAACAGGGGGCAACAGCAGAAGCGUUCACGUCGCAGCCCCUGUCUGAUUCUGGUGAAUCUGCGAAUUCUGCUGUAUAUCUC"
recorded_value = 0.49

[[record]]
record_sequence = "UAACAGGGGGCCACAGCUGAAGCGUUCACGUCGCAGCCCCUGUCAGAUUCUGGUGAAUCUGCAAAUUCUGCUGUAUAUCUC"
recorded_value = 0.48

[[record]]
record_sequence = "UAACAGGGGGCCACAGCAGAAGAGUUCGCGUCGCAGCCCCUGUCAGAUUCUGGUGAAUCUGCGAAUUCUGCUGUAUAUCUC"
recorded_value = 0.18

[[record]]
record_sequence = "UAACCGGGGGCCACAGCAGAAGCGUUCACGUCGCAGCCCCUGUCAGAUUCUGGUGAAUCUGCGAAUUCUGCAGUAUAUCUC"
recorded_value = 0.98

[[record]]
record_sequence = "UAACAGGGGGCCACAGCAGAAGCGUCCACGUCACAGCCCCUGUCAGAUUCUGGUGAAUCUGCGAAUUCUGCUGUAUAUCUC"
recorded_value = 0.24

[[record]]
record_sequence = "UAACAAGGGGCCACAGCAGAAGCGUUCACGUCGCAGCCCCUGUCAGAUUCUGGUGAAUCUGGGAAUUCUGCUGUAUAUCUC"
recorded_value = 0.42

[[record]]
record_sequence = "UAACAGGGGGCCACAGCUGAAGCGCUCACGUCGCAGCCCCUGUCAGAUUCUGGUGAAUCUGCGAAUUCUGCUGUAUAUCUC"
recorded_value = 0.26

[[record]]
record_sequence = "UAACAGGGGGCCACAGCAUAAGCGUUCACGUCGCAGCCCCUGUCAGAUUCUGGUGAAUCAGCGAAUUCUGCUGUAUAUCUC"
recorded_value = 0.45

[[record]]
record_sequence = "UAACAGGGGGCCACAGCAGAAGCGUUCACGUCGCAACCCCUGUCAGAUUCUGGUGAAUCUCCGAAUUCUGCUGUAUAUCUC"
recorded_value = 0.16

[[record]]
record_sequence = "UAACAGGGGGCCACAGCAGAAGCGUUCUCAUCGCAGCCCCUGUCAGAUUCUGGUGAAUCUGCGAAUUCUGCUGUAUAUCUC"
recorded_value = 0.11

[[record]]
record_sequence = "UAGUAGGGGGCCACAGCAGAAGCGUUCACGUCGCAGCCCCUGUCAGAUUCUGGUGAAUCUGCGAAUUCUGCUGUAUAUCUC"
recorded_value = 1.11

[[record]]
record_sequence = "UAACAGGGGGCCACAGCAGAAGCGUUCACGUCGCAGCCCCUGUCAGAUUCUGGUGAAUCUGCAAAUUUUGCUGUAUAUCUC"
recorded_value = 0.96

[[record]]
record_sequence = "UAACAGGGGGCCACAGCAGAAGCGUUCACGUCGCAGCCCCUGUCAGAUUCUGCUGAAUCUGCGAAUUCCGCUGUAUAUCUC"
recorded_value = 0.64

